tested on: OVCAR-5 ovarian; assay: NCI tumour cell line growth inhibition, 48 h; in the data active = GI50 below about 0.43 µM; inactive = the rest
Write down one outcome, taken from 1.0 = active, 0.0 = inactive

O=C(COc1cccc(/C=C2\Oc3ccc4ccccc4c3C2=O)c1)c1ccc(Cl)cc1; 0.0
CC1(C)CC([P+](c2ccccc2)(c2ccccc2)c2ccccc2)=NN1; 0.0
COC(=O)[C@]12CC[C@@H](C)[C@H](C)[C@@H]1C1=CC[C@@H]3[C@@]4(C)C(C=O)=C[C@@](C)(COS(C)(=O)=O)C4[C@H](O)C[C@@]3(C)[C@]1(C)CC2 (some centres not stated); 0.0
COc1ccc(Cn2cc3c(c2-c2cc(OC)c(OC)c(OC)c2)CCc2cnoc2-3)cc1N; 1.0

input: Dear all, I need the recorded test outcome for Clc1ccc(CNc2nccc(-c3cnn4ncccc34)n2)cc1 , thank you.
output: 0.0

---

Form field: TGI (one value per entry).
tested on: MOLT-4 leukemia; assay: NCI tumour cell line growth inhibition, 48 h
Provide only the numeric value, understood in µM.

COc1cccc(C2SC(C)C(=O)N2CCc2cccs2)c1 (stereo not drawn); 10.7
CCOc1ccc(/C=C2\NC(=S)N(/C=C3\C(=O)Oc4ccccc4C3=O)C2=O)cc1; 51.2
CSc1ccc(SC2c3ccc(C)cc3Oc3nc(N)c(C#N)c(N)c32)cc1 (stereo not drawn); 6.05
Clc1ccc(C2CC(c3cccc(Nc4ccncc4)c3)=NN2c2cc(Cl)cc(Cl)c2)cc1 (stereo not drawn); 5.01
COc1ccc2c(c1)c(-c1ccc(-c3cn(C)c4ccc(OC)cc34)[nH]1)cn2C; 29.7

input: Entry O=C1c2ccccc2-c2c1c1ccc([N+](=O)[O-])cc1c(=O)n2CCCNCCO : reported TGI = ?
output: 1.4

---

system: CAKI-1 renal; test: NCI tumour cell line growth inhibition, 48 h; in the data active = GI50 below about 0.43 µM; inactive = the rest
Write down one outcome, taken from active, inactive

COc1c(Cl)ccc2c(-c3nc4cc(Cl)c(F)cc4s3)cc(=O)oc12; inactive
NCCCN1CCN(CCCNc2nc3ccccc3c3[nH]c4ccccc4c23)CC1; active
COc1ccc(-c2cc(-c3cccc(NS(C)(=O)=O)c3)nc(N)c2C#N)cc1; active

input: Dear all, I need the recorded test outcome for NS(=O)(=O)c1ccc(-n2ncc3c(Nc4ccccc4)ncnc32)cc1 , thank you.
output: inactive

input: Dear all, I need the recorded test outcome for Clc1ccc(CNc2nccc(-c3cnn4ncccc34)n2)cc1 , thank you.
output: inactive

---

tested on: NCI/ADR-RES ovarian; assay: NCI tumour cell line growth inhibition, 48 h
Form field: TGI (one value per entry).

# annotated cases, reported TGI shown
O=C1c2ccccc2-c2c1c1ccc([N+](=O)[O-])cc1c(=O)n2CCCNCCO; 3.19 µM
Cc1cc(N2CCCC2)c([N+](=O)[O-])cc1[N+](=O)[O-]; > 100 µM
COc1ccc2[nH]c(C(=O)N3CC(CCl)c4c3cc(N)c3ccccc43)cc2c1 (centres undefined); < 0.0172 µM
Nc1nccc2c1ncn2C1OC(CO)C(O)C1O (centres undefined); > 100 µM
Nc1cc(S(N)(=O)=O)ccc1SSc1ccc(S(N)(=O)=O)cc1N; > 100 µM

input: Entry CC(C)C[C@H](NC(=O)[C@@H](NC(=O)c1cccc(-c2ccccc2)n1)[C@@H](C)O)B(O)O : reported TGI = ?
output: 6.19 µM

input: Entry O=C1C2=C(SCCS2)C(=O)c2c(Sc3ccc(Cl)cc3)c(Sc3ccc(Cl)cc3)c(Sc3ccc(Cl)cc3)c(Sc3ccc(Cl)cc3)c21 : reported TGI = ?
output: > 100 µM

input: Entry CCCCCCCCCCCCCCCCCC(=O)Nc1ccn(C2CCC(COP(=O)(O)O)O2)c(=O)n1 (centres undefined) : reported TGI = ?
output: > 100 µM

input: Entry COC1=C2C=[N+](C)C3C(=C2C=CC1OC)Cc1cc2c(cc13)OCO2 (centres undefined) : reported TGI = ?
output: > 100 µM

input: Entry COc1c2ccsc2c(OC)c2ccsc12 : reported TGI = ?
output: > 100 µM

input: Entry COc1c(C)c(C/C=C(\C)CC/C=C(\C)CC/C=C(\C)CCC=C(C)C)c(OC)c2ccccc12 : reported TGI = ?
output: > 100 µM

input: Entry C=C1C(OC/C=C/COC2O[C@@H]3O[C@@]4(C)CC[C@H]5[C@H](C)CC[C@@H](C2=C)[C@@]35OO4)O[C@@H]2O[C@@]3(C)CC[C@H]4[C@H](C)CC[C@@H]1[C@@]24OO3 (some centres undefined) : reported TGI = ?
output: 18.1 µM

input: Entry COc1ccc(Cn2cc3c(c2-c2cc(OC)c(OC)c(OC)c2)CCc2cnoc2-3)cc1N : reported TGI = ?
output: > 100 µM

input: Entry Cn1cnc2c(F)c(Nc3ccc(Br)cc3F)c(C(=O)NOCCO)cc21 : reported TGI = ?
output: > 100 µM

input: Entry Cc1cc(N(CCC#N)CCC#N)ccc1/C=C1\SC(=S)NC1=O : reported TGI = ?
output: > 100 µM

input: Entry Clc1cc(-c2ccccc2)nc2ccccc12 : reported TGI = ?
output: > 100 µM

input: Entry NC(CC(O)(c1ccccc1)c1ccccc1)c1ccccc1S (centres undefined) : reported TGI = ?
output: 33.5 µM

input: Entry COc1ccc(-c2cc(-c3cccc(NS(C)(=O)=O)c3)nc(N)c2C#N)cc1 : reported TGI = ?
output: 1.1 µM

input: Entry O=C(COc1cccc(/C=C2\Oc3ccc4ccccc4c3C2=O)c1)c1ccc(Cl)cc1 : reported TGI = ?
output: > 100 µM
